In this section we review reported Growth Rate values for a set of molecules.
Tested on: HEK-293T
Assay: Incucyte cell viability with HEK293T; note: unitless GR value; below 1 slowed growth and below 0 cell loss
Type: toxicity, cell-based
Details: human, 0 h, 10 µM, compound concentration 10 uM, replicate number 1
The reply should be a number, written without any unit.

// solved cases for Growth Rate follow
MOLECULE	RECORDED RESULT
Fc1ccc(-c2nc(-c3c(F)cccc3F)[nH]c2-c2ccncc2)cc1	-0.47
CC(C)(O)CNC(=O)N1C(=O)N(c2cccc(C(F)(F)F)c2)C2=C(C(=O)CC2)[C@@H]1c1ccc(C#N)cc1	0.26
Cc1nnc2ccc(-c3cccc(C(F)(F)F)c3)nn12	0.97

The record that follows has no Growth Rate shown yet.
Value of Growth Rate reported for the molecule COc1cc(C(=O)NCCOCCOCCOCCC(=O)Nc2cccc3c2C(=O)N(C2CCC(=O)NC2=O)C3=O)ccc1Nc1ncc(C(F)(F)F)c(Oc2cccc3c2C(=O)CC3)n1 (configuration not stated) is -0.87

---

In this section we review reported Growth Rate values for a set of compounds.
Tested on: HEK-293T
Experiment: Incucyte cell viability with HEK293T; note: unitless GR value; below 1 slowed growth and below 0 cell loss
Format: toxicity, cell-based
Conditions: human, 18 h, 10 µM, compound concentration 10 uM, replicate number 2
The reply should be a number, written without any unit.

// solved cases for Growth Rate follow
COMPOUND	RECORDED RESULT
COc1cc2c(NC3CCN(C(C)C)CC3)nc(C3CCCCC3)nc2cc1OCCCN1CCCC1	-0.38
c1ccc2c(c1)SCc1c-2[nH]c2ccccc12	-0.49
Cc1c(C(=O)Nc2cccc(C(F)(F)F)c2)cc(-c2ccccc2)n1CCCN1CCOCC1.Cl	0.27
Cc1nc(Nc2cnn(C3CCNCC3)c2)nc2c1N(C)C(=O)c1cc3ccccc3cc1N2C	0.63
CC1(C)OC(=O)c2ccc(Nc3ncc(-c4nnco4)c(N[C@H](CO)c4ccccc4)n3)cc21	-0.01
O=C(CNCc1cc2ccccc2[nH]1)N[C@H]1CC[C@@H](c2nc3ccccc3[nH]2)CC1	0.77
OCC1OC(n2cnc3cc(Cl)c(Cl)cc32)C(O)C1O (configuration not stated)	0.74
C[C@@]1(Cc2ccc(C#N)cc2)C(=O)N(c2cc(Cl)cc(Cl)c2)c2ncc(C(=O)NC3(c4nc(C5CCC5)no4)CC3)n21 [BI 9446]	0.52
CN1CCN([C@H]2CC[C@@H](n3cc(-c4ccc(Oc5ccccc5)cc4)c4c(N)ncnc43)CC2)CC1	-0.6
CN(C)CC#Cc1ccc2[nH]c3c(c2c1)-c1nc(N)ncc1CCC3	-0.23

Value of Growth Rate reported for the compound CN(C)C(=O)c1sc2nc(N3CCC(S(C)(=O)=O)CC3)cc(C(F)(F)F)c2c1N [BI-5026] is 0.85

Value of Growth Rate reported for the compound Cc1nnc2n1-c1sc3c(c1C(c1ccccc1Cl)=NC2)CC(C(=O)N1CCOCC1)C3 (configuration not stated) [BEPAFANT] is 0.99

Value of Growth Rate reported for the compound CC(C)c1nc2c(c3c1[C@H](c1ccc(C(F)(F)F)cc1)OC31CCOCC1)[C@H](O)CC(C)(C)C2 is 0.84

Value of Growth Rate reported for the compound CNc1nc(NCc2ncccn2)c2c(-c3ccc4ncccc4c3)c[nH]c2n1 is 0.8

Value of Growth Rate reported for the compound Cc1cc(-c2nncc3c(C(C)(C)C)c(OCc4ncnn4C)nn23)no1 is 0.57

---

Tested on: U2OS
Experiment: Incucyte cell viability with U2OS; note: unitless GR value; below 1 slowed growth and below 0 cell loss
Format: toxicity, cell-based
Conditions: human, 6 h, 10 µM, compound concentration 10 uM, replicate number 1
Rule: measured Growth Rate below 0.1 gets y; anything equal to or greater than 0.1 gets n.

COMPOUND	LABEL VALUE
COc1cc(Cl)c(C(=O)N[C@@H](CN[C@H]2CC[C@@H](N)CC2)Cc2ccc(C#N)cc2)cc1-c1ccc(CN[C@H](C)c2ccc(C)cc2)o1	y
Cc1ccc(NC(=O)c2ccc3c(c2)OCCO3)cc1NC(=O)c1ccc2nc(OCCN3CCCC3)ccc2c1	n
CN[C@@H](C)C(=O)N[C@H](C(=O)N1CCC[C@H]1c1nc(C(=O)c2ccc(F)cc2)cs1)C1CCCCC1	n
O=C1CCCc2[nH]c(-c3ccnc(NCC4CC4)c3)c(Nc3ccccc3)c21	n
O=C(Nc1ccc(N2CCC(C(=O)N3CCOCC3)CC2)cc1)c1cnc(Oc2ccccc2)nc1	n

Req: Strictly below 0.1: is that where Growth Rate of CC[C@H]1[C@@H](O)[C@@H]2[C@H](CC[C@]3(C)[C@@H]([C@H](C)CCC(=O)O)CC[C@@H]23)[C@@]2(C)CC[C@@H](O)C[C@@H]12 sits?
Resp: y

Req: Strictly below 0.1: is that where Growth Rate of C=CC(=O)Nc1cc(Nc2nccc(-n3cc(CN(C)C)c(-c4ccccc4)n3)n2)c(OC)cc1N1CCOCC1 sits?
Resp: y

Req: Strictly below 0.1: is that where Growth Rate of Cc1cc(OCCC(C)(C)O)cc(C)c1-c1ccc(F)c2c1CC[C@H]2Oc1ccc2c(c1)OC[C@H]2CC(=O)O sits?
Resp: n

Req: Strictly below 0.1: is that where Growth Rate of C[C@@H](CN1CCC(Cc2ccccc2)CC1)[C@@H](O)c1ccc(O)cc1 sits?
Resp: y

Req: Strictly below 0.1: is that where Growth Rate of Cc1cccc(CC(=O)N2CCc3c2ccc(-c2cn(C)c4ncnc(N)c24)c3F)n1 sits?
Resp: y

Req: Strictly below 0.1: is that where Growth Rate of Clc1ccccc1C(c1ccccc1)(c1ccccc1)n1cccn1 sits?
Resp: n

Req: Strictly below 0.1: is that where Growth Rate of C=CC[C@@H]1/C=C(\C)C[C@H](C)C[C@H](OC)[C@H]2O[C@@](O)(C(=O)C(=O)N3CCCC[C@H]3C(=O)O[C@H](/C(C)=C/[C@@H]3CC[C@@H](O)[C@H](OC)C3)[C@H](C)[C@@H](O)CC1=O)[C@H](C)C[C@@H]2OC.O sits?
Resp: n

Req: Strictly below 0.1: is that where Growth Rate of N#Cc1ccc(C#CC[C@@H](C#N)NC(=O)[C@H]2CCCCN2)cc1F.O=C(O)C(F)(F)F sits?
Resp: n

Req: Strictly below 0.1: is that where Growth Rate of [2H]C([2H])([2H])NC(=O)c1nnc(NC(=O)C2CC2)cc1Nc1cccc(-c2ncn(C)n2)c1OC sits?
Resp: n

Req: Strictly below 0.1: is that where Growth Rate of Cc1cc(C)c(NC(=O)C2CC3CCC2C3)c(C)c1 (stereo not given) sits?
Resp: n

---

System: HEK-293T
Test: Incucyte cell viability with HEK293T; note: unitless GR value; below 1 slowed growth and below 0 cell loss
Format: toxicity, cell-based
Details: human, 18 h, 10 µM, compound concentration 10 uM, replicate number 1
MEASUREMENT KIND: Growth Rate
The reply should be a number, written without any unit.

> print(dat)
                                   molecule  recorded.result
1  CS(=O)(=O)c1cc(C2(NC(=O)c3cncc4c3cnn4-c3ccc(F)cc3)CC2)ccn1 [BI 639667]              0.9

Value of Growth Rate reported for the molecule O=C1Nc2ccc(C(=O)c3ccco3)cc2C1=Cc1cc(Cl)c(O)c(Cl)c1 [GW406108X] is 0.41

Value of Growth Rate reported for the molecule Cc1cc(O)c(-c2ccc([C@@H](C)CN(C)C)cc2)c2c1[nH]c(=O)c1sccc12 is -0.72

Value of Growth Rate reported for the molecule C[C@@H](Cn1c(=O)[nH]/c(=N\c2ccc(Oc3ccccn3)cc2)n(Cc2ccc(Cl)cc2)c1=O)C(=O)O is 0.97

---

Test system: U2OS
Assay: Incucyte cell viability with U2OS; note: unitless GR value; below 1 slowed growth and below 0 cell loss
Type: toxicity, cell-based
Conditions: human, 0 h, 10 µM, compound concentration 10 uM, replicate number 2
MEASUREMENT KIND: Growth Rate
The reply should be a number, written without any unit.

// solved cases for Growth Rate follow
> print(dat)
                                   compound  recorded.result
1  Nc1ccc(S(=O)(=O)Nc2ccnn2-c2ccccc2)cc1 [SULFAPHENAZOLE]            -0.29
2  Cc1c(-c2c(F)cc(C(N)=O)c3[nH]c4c(c23)CC[C@H](C(C)(C)O)C4)cccc1-n1c(=O)c2cccc(F)c2n(C)c1=O [BMS-986142]             0.95
3  Cn1c(C2(NC(=O)c3ccc(NCC4CCCCC4)nc3)CCC2)nc2ccc(/C=C/C(=O)O)cc21 [BI 7656]             0.24
4  CCCCC/C=C/C=C1/C(=O)C=C[C@@H]1C/C=C\CCCC(=O)O             -0.2

The record that follows has no Growth Rate shown yet.
Item Cc1cc(S(=O)(=O)N2CC(C)(C)c3cc(-c4ccc(C(F)(F)F)cc4)ccc32)ccc1OCC(=O)O ; assay system U2OS; Growth Rate reported as -0.69
